target: 85/88 kDa calcium-independent phospholipase A2 (Homo sapiens) (UniProt O60733); assay: Inhibition of human group VIA iPLA2 using arachidonyl-1-14C PAPC by mixed micelles modified Dole assay
XI50 for assorted molecules
Please give only the number in your answer, with no unit.

# example entries with known answers
MOLECULE SMILES | XI50
O=C(CSCCc1ccc2ccccc2c1)C(F)(F)F | 0.0002
COc1ccc(CCSCC(=O)C(F)(F)F)cc1 | 9e-05
COc1ccc(CCSCC(=O)C(F)(F)C(F)(F)F)cc1 | 0.00012
O=C(CSCCc1ccccc1)C(F)(F)C(F)(F)F | 0.00015

Task item: Can you look up XI50 on 85/88 kDa calcium-independent phospholipase A2 (Homo sapiens) (UniProt O60733) for COc1ccc(CCSCC(=O)c2noc(C(C)(C)C)n2)cc1 ?
Reply: 0.0057

----------
Reported inhibition values for the following compounds.
Target: 85/88 kDa calcium-independent phospholipase A2 (Homo sapiens)
Sequence (whole entry): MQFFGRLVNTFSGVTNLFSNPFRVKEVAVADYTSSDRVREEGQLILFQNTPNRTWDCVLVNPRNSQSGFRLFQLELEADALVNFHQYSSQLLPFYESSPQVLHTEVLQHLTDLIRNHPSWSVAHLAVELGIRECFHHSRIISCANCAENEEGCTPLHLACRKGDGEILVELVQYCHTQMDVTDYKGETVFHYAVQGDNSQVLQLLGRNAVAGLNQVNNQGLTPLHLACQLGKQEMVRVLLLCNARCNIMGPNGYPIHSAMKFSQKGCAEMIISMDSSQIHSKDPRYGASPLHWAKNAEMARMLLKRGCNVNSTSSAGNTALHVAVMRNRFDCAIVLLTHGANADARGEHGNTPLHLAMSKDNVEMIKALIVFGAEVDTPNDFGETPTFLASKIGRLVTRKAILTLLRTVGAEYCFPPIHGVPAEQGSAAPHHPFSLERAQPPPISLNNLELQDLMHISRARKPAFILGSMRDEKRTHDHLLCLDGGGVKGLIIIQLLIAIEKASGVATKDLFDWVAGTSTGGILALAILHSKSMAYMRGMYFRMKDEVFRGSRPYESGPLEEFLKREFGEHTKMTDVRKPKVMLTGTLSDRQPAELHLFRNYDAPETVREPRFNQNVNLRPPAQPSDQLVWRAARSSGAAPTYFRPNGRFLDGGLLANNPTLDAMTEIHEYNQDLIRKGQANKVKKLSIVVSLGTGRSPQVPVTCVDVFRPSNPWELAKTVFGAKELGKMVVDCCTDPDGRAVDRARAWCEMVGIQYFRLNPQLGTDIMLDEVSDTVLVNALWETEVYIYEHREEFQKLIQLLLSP
Experiment: Inhibition of human group VIA iPLA2 at 0.091 mol fraction using arachidonyl-1-14C PAPC by mixed micelles modified Dole assay
The reply should be a number in %, with the unit left off.

MOLECULE SMILES | inhibition, %
COc1ccc(CCSCC(=O)C(F)(F)C(F)(F)F)cc1 | 100
COc1ccc(CCSCC(=O)c2noc(C(C)(C)C)n2)cc1 | 98
O=C(CSCCc1ccccc1)C(F)(F)C(F)(F)F | 99
COc1ccc(CCCCC(=O)c2noc(C(C)(C)C)n2)cc1 | 64
O=C(CSCCc1ccc2ccccc2c1)C(F)(F)F | 99

Query compound follows.
Task item: // inhibition lookup, key: COc1ccc(CCSCC(=O)C(F)(F)F)cc1
Reply: 96
